# Assay Comment: Pharmacokinetic Assay, single oral dose 5 mg/kg (Table 12)
# Assay type: in vivo
# Protocol Conditions: mouse; plasma concentration, C57 female mice, single oral dose 5 mg/kg, 4 h
This listing pairs compounds with measured concentration at 4 h.
State the answer as a number, implicitly in ng/mL.

Could you share which concentration at 4 h value was measured for COc1c(-c2nc3cc(CN4CCCC4)c(F)c(F)c3o2)cccc1-c1cccc(-c2nc3cc(CN4CCC[C@H]4C(=O)O)c(OC(F)F)cc3o2)c1C [Example 117] ?
243

Please give the measured concentration at 4 h for this compound: Cc1c(-c2nc3cc(CN4CCC[C@H]4C(=O)O)c(OC(F)F)cc3o2)cccc1-c1cccc(-c2nc3cc(CN4CC5CC4C5)cc(C(F)(F)F)c3o2)c1C [Example 89]
109

Item under review: Cc1c(-c2ccc(CN3CC(C)(C)C3)c(F)c2)cccc1-c1cccc(-c2nc3cc(CN4CCC[C@H]4C(=O)O)c(OC(F)F)cc3o2)c1C [Example 237] . Reported concentration at 4 h?
186

Recorded concentration at 4 h of Cc1c(-c2nc3cc(CNCC(O)C(F)(F)F)c(OC(F)F)cc3o2)cccc1-c1cccc(-c2nc3cc(CN4CCC[C@H]4C(=O)O)c(OC(F)F)cc3o2)c1C (stereo partly drawn) [Example 22] , please.
81.1

Look up concentration at 4 h for this compound: Cc1c(-c2nc3c(o2)CCN(CC#N)C3)cccc1-c1cccc(-c2nc3cc(CN4CCC[C@H]4C(=O)O)c(OC(F)F)cc3o2)c1C [Example 195]
125

// returns reported concentration at 4 h for input COc1nc(-c2cccc(-c3cccc(-c4nc5cc(CN6CCC[C@H]6C(=O)O)c(OC(F)F)cc5o4)c3C)c2C)ccc1CN1CC[C@@H](C)C1 [Example 272]
141

Would you mind telling me what concentration at 4 h value was observed for Cc1c(-c2nc3cc(CN4CCC[C@H]4C(=O)O)c(OC(F)F)cc3o2)cccc1-c1cccc(-c2nc3cc(CN4CCC(C#N)C4)cc(C#N)c3o2)c1C (stereo partly drawn) [Example 142] ?
171

Reported concentration at 4 h, compound Cc1c(-c2ccc(CN3CC[C@H](COCc4ccccc4)C3)c(F)c2)cccc1-c1cccc(-c2nc3cc(CN4CCC[C@H]4C(=O)O)c(OC(F)F)cc3o2)c1C [Example 252] : ____
4150

Item under review: Cc1c(-c2nc3cc(CN4CCOCC4)c(OC(F)F)cc3o2)cccc1-c1cccc(-c2nc3cc(CN4CCC[C@H]4C(=O)O)c(OC(F)F)cc3o2)c1C [Example 13] . Reported concentration at 4 h?
301

Fill in: concentration at 4 h of COC1CCN(Cc2ccc(-c3cccc(-c4cccc(-c5nc6cc(CN7CCC[C@H]7C(=O)O)c(OC(F)F)cc6o5)c4C)c3C)cc2)C1 (stereo partly drawn) [Example 227] is ___
114

Suppose we examine the compound Cc1c(-c2nc3cc(CN4CCC[C@H]4C(=O)O)c(OC(F)F)cc3o2)cccc1-c1cccc(-c2nc3cc(CN4CC(C)(C)C4)cc(C#N)c3o2)c1C [Example 103] ; what concentration at 4 h value has been reported?
135

Value lookup for concentration at 4 h; key = Cc1c(-c2nc3cc(CN4CCC(C)(C)C4)c(OC(F)F)cc3o2)cccc1-c1cccc(-c2nc3cc(CN4CCC[C@H]4C(=O)O)c(OC(F)F)cc3o2)c1C [Example 67]
462
